System: conscious cynomolgus monkeys
Test: Cardiovascular side effects (blood pressure, heart rate) after i.v. administration
Type: in vivo, cynomolgus monkey
Conditions: i.v. 500 μg/kg, up to 6 hours; + with * = increase from base levels
Source text: Cardiovascular measurements were made in a different group of monkeys using a BP 100S automated sphygmomanometer (Nippon Colin,. Japan).
OBSERVED_PROPERTY: Maximum % Decrease From Pretreatment Levels, Heart Rate

Record excerpt, results attached:
COMPOUND | ASSAY_VALUE
c1ccc2c(c1)CC[C@@H](Cc1c[nH]cn1)C2 [Example J-3] | +10.6 ± 6.0* %
Cl.O=C1c2ccsc2CCC1Cc1c[nH]cn1 (centres unmarked) [Example B-9b] | +20.2 ± 3.4* %
c1ccc2c(c1)CC(Cc1c[nH]cn1)CO2 (centres unmarked) [Example B-2d, 4(5)-chroman-3-ylmethyl-1H-imidazole] | +15.5 ± 3.4* %
c1nc(Cc2ccsc2)c[nH]1 [Example C-1, 4(5)-thiophen-3-ylmethyl-1H-imidazole] | +11 ± 9* %

Attention now turns to another entry.
Sample c1nc(CC2CCc3sccc3C2)c[nH]1 (centres unmarked) [Example B-9a] , system: conscious cynomolgus monkeys. Its Maximum % Decrease From Pretreatment Levels, Heart Rate is +23.8 ± 4.4* %
